The following compounds are shown together with reported normalized growth values.
- ASSAY_METHOD_TEXT: chemical genetic growth profiling, strain panel (AID 1159580);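 note: tested at 20 µM; growth read once vehicle control cultures reached saturation at 30 °C; 1 = growth at the plate median or of vehicle wells; lower values mean less growth of the strain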
- TEST_PARAMETERS: S. cerevisiae deletion strains, growth OD, locus YLL026W, hits give low values
The whole screen tested about 5,500 compounds, of which about 2,000 (36%) were called active. About 18% were inconclusive and are not listed. Some of the results follow.
EXPERIMENTAL_READOUT: normalized growth

[[record]]
compound = "COc1cc(NS(C)(=O)=O)ccc1Cc1c2ccccc2nc2ccccc12"
test_value = 0.977

[[record]]
compound = "COC1C=CC23c4cc5c(cc4CN(CC2O)[C@@H]3C1)OCO5 (stereo not given in full)"
test_value = 1

[[record]]
compound = "CC(=O)OCC(=O)[C@@]1(O)CCC2C3CCC4=CC(=O)C=CC4(C)C3[C@@H](O)C[C@@]21C (stereo not given in full)"
test_value = 0.99

[[record]]
compound = "COc1ccc(-c2oc3cc(OC)c(OC)c(OC)c3c(=O)c2OC)cc1"
test_value = 0.983

[[record]]
compound = "O=c1oc2ccccc2cc1O"
test_value = 1

[[record]]
compound = "CC(=O)C1CCC2C3CCC4C[C@H](O)CCC4(C)C3C[C@H](O)C12C (stereo not given in full)"
test_value = 0.968

[[record]]
compound = "O=c1cccc2n1CC1CC2CN2CCCC[C@@H]12 (stereo not given in full)"
test_value = 0.976

[[record]]
compound = "CCCCC(=O)O[C@]1(C(=O)CO)CCC2C3CCC4=CC(=O)CC[C@]4(C)C3[C@@H](O)C[C@@]21C (stereo not given in full)"
test_value = 0.975

[[record]]
compound = "COC(=O)[C@H](c1ccccc1Cl)N1CCc2sccc2C1"
test_value = 0.977

[[record]]
compound = "C[C@@H]1CC2C3CCC4=CC(=O)C=C[C@]4(C)[C@@]3(F)[C@@H](O)C[C@]2(C)[C@@]1(O)C(=O)CO (stereo not given in full)"
test_value = 0.985

[[record]]
compound = "COc1ccc(-c2oc3cc(OC)c(OC)c(OC)c3c(=O)c2OC)cc1OC"
test_value = 0.989

[[record]]
compound = "Cc1ccc(C(=O)c2ccc(CC(=O)O)n2C)cc1"
test_value = 1.01

[[record]]
compound = "CC(=O)O[C@@H]1CC2C(C)(C)[C@@H](O)CC[C@]2(C)C2CC[C@@]3(C)[C@H](c4ccoc4)OC(=O)[C@H]4O[C@]43[C@@]21C (stereo not given in full)"
test_value = 0.997

[[record]]
compound = "CC(=O)O[C@H]1CC[C@@]2(C)C(C[C@@H](OC(C)=O)[C@]3(C)C2CC[C@@]2(C)[C@H](c4ccoc4)OC(=O)[C@H]4O[C@]423)C1(C)C (stereo not given in full)"
test_value = 0.995

[[record]]
compound = "Cc1cc(/C=C/c2ccc3cc(N(C)C)ccc3[n+]2C)c(C)n1-c1ccccc1"
test_value = 0.926

[[record]]
compound = "NC(N)=NCCCCN=C(N)N"
test_value = 1.01

[[record]]
compound = "CC(=O)O[C@H]1C[C@@H](OC(C)=O)C(C)(C)C2C[C@@H](O)[C@]3(C)C(CC[C@@]4(C)[C@H](c5ccoc5)OC(=O)[C@H]5O[C@]543)[C@]21C (stereo not given in full)"
test_value = 0.994

[[record]]
compound = "COC(=O)[C@@H]1OC(=O)C2OC23[C@@]1(C)CCC1[C@@]2(C)CCC(=O)C(C)(C)C2C[C@@H](OC(C)=O)[C@]13C (stereo not given in full)"
test_value = 1.02

[[record]]
compound = "COP(=S)(OC)Oc1ccc(Sc2ccc(OP(=S)(OC)OC)cc2)cc1"
test_value = 0.995

[[record]]
compound = "CC(=O)O[C@@H]1CC2C(C)(C)[C@H](O)CC[C@]2(C)C2CC[C@@]3(C)[C@H](c4ccoc4)OC(=O)C4OC43[C@@]21C (stereo not given in full)"
test_value = 1.01

[[record]]
compound = "C=C1C(=O)[C@]23[C@H](O)[C@H]1CC[C@H]2[C@@]12CO[C@]3(O)[C@H](O)[C@@H]1C(C)(C)CC[C@@H]2O"
test_value = 0.992

[[record]]
compound = "O=C(O)COc1ccc(Cl)cc1Cl"
test_value = 0.988

[[record]]
compound = "COc1ccc2c(c1)OCC(Cc1ccc(OC)c(O)c1)C2=O (stereo not given)"
test_value = 0.957

[[record]]
compound = "CCCn1c(=O)c2[nH]c(C3CCCC3)nc2n(CCC)c1=O"
test_value = 0.974

[[record]]
compound = "CN(C)CCC(c1ccccc1)c1ccccn1 (stereo not given)"
test_value = 1.02

[[record]]
compound = "COc1ccc2nc(S(=O)Cc3ncc(C)c(OC)c3C)[nH]c2c1 (stereo not given)"
test_value = 0.983

[[record]]
compound = "NC(N)=NCCN1CCCCCCC1"
test_value = 1.03

[[record]]
compound = "CC[C@@H]1OC(=O)C[C@@H](O)[C@H](C)[C@@H](O[C@@H]2O[C@H](C)[C@@H](O)[C@H](N(C)C)[C@H]2O)[C@@H](CCN2C[C@H](C)C[C@H](C)C2)C[C@@H](C)C(=O)/C=C/C(C)=C\\[C@@H]1CO[C@@H]1O[C@H](C)[C@@H](O)[C@@H](OC)[C@H]1OC"
test_value = 0.993

[[record]]
compound = "COP(=S)(OC)Oc1ccc([N+](=O)[O-])cc1"
test_value = 0.993

[[record]]
compound = "COC[C@]12CN(C=O)C3[C@@H]4[C@H](OC)C1[C@]3(C1CC3(O)C(OC)C(O)C4(OC(C)=O)C1C3OC(=O)c1ccccc1)[C@@H](OC)C[C@H]2O (stereo not given in full)"
test_value = 1.01

[[record]]
compound = "CC(=O)O[C@@H]1CC2C(C)(C)C(=O)C3OC3[C@]2(C)C2CC[C@@]3(C)[C@H](c4ccoc4)OC(=O)C4OC43[C@@]21C (stereo not given in full)"
test_value = 0.988

[[record]]
compound = "CC(=O)O[C@H]1C[C@@]2(C)[C@@H](C[C@@H](O)C3[C@]2(C)CC[C@H]2[C@H](C)[C@H](O)CC[C@]32C)/C1=C(/CCC=C(C)C)C(=O)O (stereo not given in full)"
test_value = 1.02

[[record]]
compound = "CC(=O)O[C@@H]1CC2C(C)(C)[C@H](O)C=C[C@]2(C)C2CC[C@@]3(C)[C@H](c4ccoc4)OC(=O)C4OC43[C@@]21C (stereo not given in full)"
test_value = 1.02

[[record]]
compound = "CC(C)/C(O)=C1/C(=O)O[C@@H](c2ccoc2)[C@]2(C)C(O)[C@@H](O)[C@@]34OC5(C)OC67CC(C)(C(O)[C@]6(O)[C@@H](O)[C@]3(O5)C12)[C@H](CC(=O)O)[C@]74C (stereo not given in full)"
test_value = 0.992

[[record]]
compound = "CC1C/C=C/C=C/C=C/C=C/C(O[C@@H]2O[C@H](C)[C@@H](O)[C@H](N)[C@@H]2O)CC2OC(O)(CC(O)CC3OC3/C=C/C(=O)O1)CC(O)C2C(=O)O (stereo not given in full)"
test_value = 1


* * *

- ASSAY_METHOD_TEXT: chemical genetic growth profiling, strain panel (AID 1159580);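 note: tested at 20 µM; growth read once vehicle control cultures reached saturation at 30 °C; 1 = growth at the plate median or of vehicle wells; lower values mean less growth of the strain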
- TEST_PARAMETERS: S. cerevisiae deletion strains, growth OD, locus YDR150W, strain NUM1, hits give low values
Out of some 5,500 compounds screened, about 2,000 (36%) were called active. About 18% were inconclusive and are not listed. The list shows a part of the results.
Simple rule here: normalized growth less than 1 is satisfied, otherwise not satisfied.

[[record]]
entry_smiles = "O=c1oc2ccccc2cc1[N+](=O)[O-]"
cat = "satisfied"

[[record]]
entry_smiles = "COc1cscc1C(N)=O"
cat = "not satisfied"

[[record]]
entry_smiles = "COc1cc(OC)c2c(=O)cc(-c3ccccc3)oc2c1"
cat = "satisfied"

[[record]]
entry_smiles = "O=C(Oc1ccc(Cl)cc1Cl)c1c(Cl)cccc1Cl"
cat = "satisfied"

[[record]]
entry_smiles = "COC(=O)c1ccsc1N"
cat = "not satisfied"

[[record]]
entry_smiles = "Cc1onc2c(=O)n(-c3ccccc3)nc(-c3ccccc3)c12"
cat = "satisfied"

